measuredTarget: UniProt Q99500
assayMethodText: Maximal efficacy against sphingosine 1-phosphate receptor 3 determined by a [c-35S]-GTP binding assay
recordedEndpoint: Emax

INSERT INTO results (molecule, obsvalue) VALUES
  ('CCCCCCCCc1ccc(-c2c[nH]c([C@H](N)CO)n2)cc1', 0.38),
  ('CCCCCCCCc1ccc(-c2c[nH]c([C@@H](N)COP(=O)(O)O)n2)cc1', 0.42),
  ('CCCCCCCCCCCCC/C=C/[C@@H](O)[C@@H](N)COP(=O)(O)O', 1),
  ('CCCCCCCCc1ccc(-c2c[nH]c(C(C)(N)COP(O)(O)=S)n2)cc1 (stereo unspecified)', 0.44),
  ('CCCCCCCCc1ccc(-c2c[nH]c(C(C)(N)COP(=O)(O)O)n2)cc1 (stereo unspecified)', 0.53),
  ('CCCCCCCCc1ccc(-c2c[nH]c([C@@H](N)COP(O)(O)=S)n2)cc1', 0.45);

###

measuredTarget: Sphingosine 1-phosphate receptor 1 (Homo sapiens)
assayMethodText: Effective concentration against sphingosine-1-phosphate receptor 1 determined by a [c-35S]-GTP binding assay
pEC50: −log10 of the molar value.
Please enter met where pEC50 is greater than or equal to 8, and not met where it is lower.

INSERT INTO assay_data (compound, measuredtarget, answerlabel) VALUES
  ('CCCCCCCCc1ccc(-c2c[nH]c([C@H](N)CO)n2)cc1', 'Sphingosine 1-phosphate receptor 1 (Homo sapiens)', 'not met'),
  ('CCCCCCCCc1ccc(-c2c[nH]c([C@@H](N)COP(=O)(O)O)n2)cc1', 'Sphingosine 1-phosphate receptor 1 (Homo sapiens)', 'met'),
  ('CCCCCCCCc1ccc(-c2c[nH]c(C(N)(CO)CO)n2)cc1', 'Sphingosine 1-phosphate receptor 1 (Homo sapiens)', 'not met'),
  ('CCCCCCCCc1ccc(-c2c[nH]c(C(C)(N)COP(=O)(O)O)n2)cc1 (centres undefined)', 'Sphingosine 1-phosphate receptor 1 (Homo sapiens)', 'met'),
  ('CCCCCCCCc1ccc(-c2c[nH]c(C(N)(CO)COP(O)(O)=S)n2)cc1 (centres undefined)', 'Sphingosine 1-phosphate receptor 1 (Homo sapiens)', 'not met');

###

Listed here are compounds together with their documented Emax.
measuredTarget: Sphingosine 1-phosphate receptor 3 (Homo sapiens, UniProt Q99500)
Sequence (Q99500 whole entry): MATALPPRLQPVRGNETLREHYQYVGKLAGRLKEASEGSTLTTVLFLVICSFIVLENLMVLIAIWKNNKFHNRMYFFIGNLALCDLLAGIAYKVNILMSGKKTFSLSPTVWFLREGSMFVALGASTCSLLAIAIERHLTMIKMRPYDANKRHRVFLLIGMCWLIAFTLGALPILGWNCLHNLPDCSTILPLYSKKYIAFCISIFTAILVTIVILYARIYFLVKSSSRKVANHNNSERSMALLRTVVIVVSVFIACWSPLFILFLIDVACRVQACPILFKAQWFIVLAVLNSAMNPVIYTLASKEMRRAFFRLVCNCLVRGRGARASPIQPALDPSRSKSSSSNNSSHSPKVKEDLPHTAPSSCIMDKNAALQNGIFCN
assayMethodText: Maximal efficacy against sphingosine 1-phosphate receptor 3 determined by a [c-35S]-GTP binding assay
recordedEndpoint: Emax

INSERT INTO results (compound, measuredtarget, recordedendpoint, obsvalue) VALUES
  ('CCCCCCCCc1ccc(-c2c[nH]c([C@H](N)COP(=O)(O)O)n2)cc1', 'Sphingosine 1-phosphate receptor 3 (Homo sapiens, UniProt Q99500)', 'Emax', 0.56),
  ('CCCCCCCCc1ccc(-c2c[nH]c(C(N)(CO)CO)n2)cc1', 'Sphingosine 1-phosphate receptor 3 (Homo sapiens, UniProt Q99500)', 'Emax', 0),
  ('CCCCCCCCc1ccc(CCC(N)(CO)COP(=O)(O)O)cc1 (stereo not given)', 'Sphingosine 1-phosphate receptor 3 (Homo sapiens, UniProt Q99500)', 'Emax', 0.5),
  ('CCCCCCCCc1ccc(-c2c[nH]c(C(N)(CO)COP(O)(O)=S)n2)cc1 (stereo not given)', 'Sphingosine 1-phosphate receptor 3 (Homo sapiens, UniProt Q99500)', 'Emax', 0.68),
  ('CCCCCCCCc1ccc(-c2c[nH]c(C(N)(CO)COP(=O)(O)O)n2)cc1 (stereo not given)', 'Sphingosine 1-phosphate receptor 3 (Homo sapiens, UniProt Q99500)', 'Emax', 0.21);

###

Reported EC50 values follow for various compounds
measuredTarget: Sphingosine 1-phosphate receptor 1 (Homo sapiens, UniProt P21453)
Sequence (P21453 whole entry): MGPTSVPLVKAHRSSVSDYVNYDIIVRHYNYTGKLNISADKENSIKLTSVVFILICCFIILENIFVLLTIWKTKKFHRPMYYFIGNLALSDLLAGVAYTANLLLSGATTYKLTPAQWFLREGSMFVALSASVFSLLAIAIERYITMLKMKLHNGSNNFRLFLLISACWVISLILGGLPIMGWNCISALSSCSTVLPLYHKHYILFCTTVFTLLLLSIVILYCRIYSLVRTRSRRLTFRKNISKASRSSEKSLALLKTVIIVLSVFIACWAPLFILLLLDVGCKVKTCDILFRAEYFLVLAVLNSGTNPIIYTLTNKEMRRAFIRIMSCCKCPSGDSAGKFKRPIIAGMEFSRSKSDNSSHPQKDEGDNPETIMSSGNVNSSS
assayMethodText: Effective concentration against sphingosine-1-phosphate receptor 1 determined by a [c-35S]-GTP binding assay
recordedEndpoint: EC50 (nM)

INSERT INTO results (compound, recordedendpoint, obsvalue) VALUES
  ('CCCCCCCCc1ccc(-c2c[nH]c([C@H](N)COP(=O)(O)O)n2)cc1', 'EC50', 7),
  ('CCCCCCCCc1ccc(-c2c[nH]c(C(C)(N)COP(O)(O)=S)n2)cc1 (centres undefined)', 'EC50', 9.8),
  ('CCCCCCCCc1ccc(-c2c[nH]c(C(N)(CO)COP(=O)(O)O)n2)cc1 (centres undefined)', 'EC50', 7.9),
  ('CCCCCCCCc1ccc(-c2c[nH]c([C@@H](N)COP(O)(O)=S)n2)cc1', 'EC50', 6.4);
